# target: Sulfonylurea receptor 2, Kir6.2 (Homo sapiens) (UniProt Q14654+O60706)
# procedureSummary: Ability to open human urinary bladder Kir6.2 containing SUR2B in Ltk cells by FLIPR assay relative to P1075
# Assay type: functional, cell-based
Entry flag: true (1) if Efficacy reaches 50%; false (0) if it does not.

Inquiry: Determine whether measured Efficacy meets or exceeds 50% for CC[C@H]1OCC(O)=C2C1=NC1=C(C(=O)COC1)[C@H]2c1ccc(C)c(Br)c1 (stereo in doubt; 78a)
Reply text: true (1)

Inquiry: Determine whether measured Efficacy meets or exceeds 50% for C[C@@H]1C2=C(C(=O)N1C)[C@H](c1ccc(F)c(Br)c1)C1=C(O)COCC1=N2 (relative stereo)
Reply text: true (1)

Inquiry: Determine whether measured Efficacy meets or exceeds 50% for CC[C@H]1OC(O)=C2C1=NC1=C(C(=O)COC1(C)C)[C@H]2c1ccc(F)c(Br)c1 (racemic)
Reply text: false (0)

Inquiry: Determine whether measured Efficacy meets or exceeds 50% for CC[C@H]1OCC(O)=C2C1=NC1=C(C(=O)COC1)[C@H]2c1ccc(F)c(I)c1 (stereo in doubt; 73b)
Reply text: true (1)

Inquiry: Determine whether measured Efficacy meets or exceeds 50% for CCC[C@H]1OC(O)=C2C1=NC1=C(C(=O)COC1)[C@H]2c1ccc(F)c(Br)c1 (stereo in doubt; 23a)
Reply text: true (1)

Inquiry: Determine whether measured Efficacy meets or exceeds 50% for CC[C@H]1OC(O)=C2C1=NC1=C(C(=O)C(C)(C)OC1)[C@H]2c1ccc(F)c(Br)c1 (stereo in doubt; 36b)
Reply text: false (0)

Inquiry: Determine whether measured Efficacy meets or exceeds 50% for CC[C@H]1OCC(O)=C2C1=NC1=C(C(=O)COC1)[C@H]2c1ccc(F)c(Br)c1 (racemic)
Reply text: false (0)

====

# target: Sulfonylurea receptor 2, Kir6.2 (Homo sapiens) (UniProt Q14654+O60706)
# procedureSummary: Ability to open human urinary bladder Kir6.2 containing SUR2B in Ltk cells by FLIPR assay relative to P1075
# Type: functional, cell-based
Hi there, I'd appreciate the recorded Efficacy for every entry that follows.
// return numeric value only (unit: %, not printed)

Simply: CC1(C)OCC2=NC3=C(C(=O)COC3)C(c3ccc(F)c(Br)c3)C2=C1O (stereo not given) , Sulfonylurea receptor 2, Kir6.2 (Homo sapiens) (UniProt Q14654+O60706), Efficacy = 96

Simply: O=C1COCC2=C1C(c1ccc(F)c(Br)c1)C1=C(O)COCC1=N2 (stereo not given) , Sulfonylurea receptor 2, Kir6.2 (Homo sapiens) (UniProt Q14654+O60706), Efficacy = 87

Simply: CCC[C@H]1OC(O)=C2C1=NC1=C(C(=O)COC1)[C@H]2c1ccc(F)c(Br)c1 (stereo in doubt; 23b) , Sulfonylurea receptor 2, Kir6.2 (Homo sapiens) (UniProt Q14654+O60706), Efficacy = 45

Simply: CC(C)C[C@@H]1OC(O)=C2C1=NC1=C(C(=O)COC1)[C@H]2c1ccc(F)c(Br)c1 (relative stereo) , Sulfonylurea receptor 2, Kir6.2 (Homo sapiens) (UniProt Q14654+O60706), Efficacy = 83

Simply: O=C1COCC2=C1C(c1ccc(F)c(Br)c1)C1=C(O)OCC1=N2 (stereo in doubt; 6) , Sulfonylurea receptor 2, Kir6.2 (Homo sapiens) (UniProt Q14654+O60706), Efficacy = 92

====

# target: Sulfonylurea receptor 2, Kir6.2 (Homo sapiens) (UniProt Q14654+O60706)
# procedureSummary: Activity against pig bladder KATP channel opening assessed as ability to relax field-stimulated pig detrusor relative to P1075
# Type: functional
# cond: Sus scrofa; target entry is the homologue from another species
measuredEndpoint: Efficacy (%)
// return numeric value only (unit: %, not printed)

Simply: CCC[C@H]1OC(O)=C2C1=NC1=C(C(=O)COC1)[C@H]2c1ccc(F)c(I)c1 (stereo in doubt; 41b) , Sulfonylurea receptor 2, Kir6.2 (Homo sapiens) (UniProt Q14654+O60706), Efficacy = 86

Simply: CCC(C)(C)/N=C(\NC#N)Nc1cccnc1 , Sulfonylurea receptor 2, Kir6.2 (Homo sapiens) (UniProt Q14654+O60706), Efficacy = 99

Simply: O=C1COCC2=C1[C@@H](c1ccc(F)c(Br)c1)C1=C(O)O[C@@H](c3ccccc3)C1=N2 (relative stereo) , Sulfonylurea receptor 2, Kir6.2 (Homo sapiens) (UniProt Q14654+O60706), Efficacy = 91

Simply: CCC[C@H]1OC(O)=C2C1=NC1=C(C(=O)COC1)[C@H]2c1ccc(F)c(Br)c1 (racemic) , Sulfonylurea receptor 2, Kir6.2 (Homo sapiens) (UniProt Q14654+O60706), Efficacy = 90

Simply: CC(C)C[C@@H]1OC(O)=C2C1=NC1=C(C(=O)COC1)[C@H]2c1ccc(F)c(Br)c1 (relative stereo) , Sulfonylurea receptor 2, Kir6.2 (Homo sapiens) (UniProt Q14654+O60706), Efficacy = 74

Simply: CC(C)[C@@H]1OC(O)=C2C1=NC1=C(C(=O)COC1)[C@H]2c1ccc(F)c(Br)c1 (relative stereo) , Sulfonylurea receptor 2, Kir6.2 (Homo sapiens) (UniProt Q14654+O60706), Efficacy = 97

Simply: C[C@@H]1OC(O)=C2C1=NC1=C(C(=O)COC1)[C@H]2c1ccc(F)c(Br)c1 (stereo in doubt; 17a) , Sulfonylurea receptor 2, Kir6.2 (Homo sapiens) (UniProt Q14654+O60706), Efficacy = 97

====

Hi there, I'd appreciate the recorded Efficacy for every entry that follows.
# target: Sulfonylurea receptor 2, Kir6.2 (Homo sapiens) (UniProt Q14654+O60706)
# procedureSummary: Ability to open human urinary bladder Kir6.2 containing SUR2B in Ltk cells by FLIPR assay relative to P1075
# Format: functional, cell-based
// return numeric value only (unit: %, not printed)

The compound CC[C@H]1OCC(O)=C2C1=NC1=C(C(=O)COC1)[C@H]2c1ccc(Br)c(Br)c1 (stereo in doubt; 77a) showed Efficacy equal to 120

The compound CCC[C@H]1OC(O)=C2C1=NC1=C(C(=O)COC1)[C@H]2c1ccc(F)c(Cl)c1 (stereo in doubt; 39a) showed Efficacy equal to 74

The compound COC[C@H]1OC(O)=C2C1=NC1=C(C(=O)COC1)[C@H]2c1ccc(F)c(Br)c1 (racemic) showed Efficacy equal to 103

The compound CC[C@H]1OCC(O)=C2C1=NC1=C(C(=O)COC1)[C@H]2c1ccc(Cl)c(Br)c1 (racemic) showed Efficacy equal to 70

The compound CC[C@@H]1OCC(O)=C2C1=NC1=C(C(=O)COC1)[C@H]2c1ccc(F)c(Br)c1 (stereo in doubt; 70b) showed Efficacy equal to 94

The compound CCC[C@H]1OC(O)=C2C1=NC1=C(C(=O)COC1)[C@H]2c1ccc(C)c(Br)c1 (racemic) showed Efficacy equal to 104

The compound CCC[C@H]1OC(O)=C2C1=NC1=C(C(=O)COC1)[C@H]2c1ccc(Br)c(Br)c1 (racemic) showed Efficacy equal to 119

The compound C[C@@H]1OCC(=O)C2=C1N=C1COC(O)=C1[C@@H]2c1ccc(F)c(Br)c1 (relative stereo) showed Efficacy equal to 73

The compound CC[C@@H]1CC(O)=C2C1=NC1=C(C(=O)COC1)[C@H]2c1ccc(F)c(Br)c1 (relative stereo) showed Efficacy equal to 88

The compound C[C@H]1OC(O)=C2C1=NC1=C(C(=O)COC1)[C@H]2c1ccc(F)c(Br)c1 (stereo in doubt; 18a) showed Efficacy equal to 86

The compound CCC[C@H]1OC(O)=C2C1=NC1=C(C(=O)COC1)[C@H]2c1ccc(C)c(Br)c1 (stereo in doubt; 46b) showed Efficacy equal to 87

The compound CC[C@H]1OC(O)=C2C1=NC1=C(C(=O)COC1)[C@H]2c1ccc(F)c(Br)c1 (stereo in doubt; 21a) showed Efficacy equal to 54

The compound CCC[C@H]1OC(O)=C2C1=NC1=C(C(=O)COC1)[C@H]2c1ccc(F)c(I)c1 (racemic) showed Efficacy equal to 105

====

Hi there, I'd appreciate the recorded EC50 for every entry that follows.
# target: Sulfonylurea receptor 2, Kir6.2 (Homo sapiens, UniProt O60706+Q14654)
# Sequence (Q14654 whole entry): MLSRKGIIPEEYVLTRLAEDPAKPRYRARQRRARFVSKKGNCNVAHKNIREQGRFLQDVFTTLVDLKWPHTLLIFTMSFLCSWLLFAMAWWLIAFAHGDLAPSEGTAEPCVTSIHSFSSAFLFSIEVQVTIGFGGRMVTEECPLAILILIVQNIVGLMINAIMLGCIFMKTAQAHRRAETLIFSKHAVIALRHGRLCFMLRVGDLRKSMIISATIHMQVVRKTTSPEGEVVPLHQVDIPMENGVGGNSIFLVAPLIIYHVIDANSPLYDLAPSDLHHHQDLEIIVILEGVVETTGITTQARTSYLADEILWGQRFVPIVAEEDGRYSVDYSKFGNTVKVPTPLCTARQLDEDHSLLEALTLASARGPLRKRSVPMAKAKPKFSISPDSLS
# Sequence (O60706 whole entry): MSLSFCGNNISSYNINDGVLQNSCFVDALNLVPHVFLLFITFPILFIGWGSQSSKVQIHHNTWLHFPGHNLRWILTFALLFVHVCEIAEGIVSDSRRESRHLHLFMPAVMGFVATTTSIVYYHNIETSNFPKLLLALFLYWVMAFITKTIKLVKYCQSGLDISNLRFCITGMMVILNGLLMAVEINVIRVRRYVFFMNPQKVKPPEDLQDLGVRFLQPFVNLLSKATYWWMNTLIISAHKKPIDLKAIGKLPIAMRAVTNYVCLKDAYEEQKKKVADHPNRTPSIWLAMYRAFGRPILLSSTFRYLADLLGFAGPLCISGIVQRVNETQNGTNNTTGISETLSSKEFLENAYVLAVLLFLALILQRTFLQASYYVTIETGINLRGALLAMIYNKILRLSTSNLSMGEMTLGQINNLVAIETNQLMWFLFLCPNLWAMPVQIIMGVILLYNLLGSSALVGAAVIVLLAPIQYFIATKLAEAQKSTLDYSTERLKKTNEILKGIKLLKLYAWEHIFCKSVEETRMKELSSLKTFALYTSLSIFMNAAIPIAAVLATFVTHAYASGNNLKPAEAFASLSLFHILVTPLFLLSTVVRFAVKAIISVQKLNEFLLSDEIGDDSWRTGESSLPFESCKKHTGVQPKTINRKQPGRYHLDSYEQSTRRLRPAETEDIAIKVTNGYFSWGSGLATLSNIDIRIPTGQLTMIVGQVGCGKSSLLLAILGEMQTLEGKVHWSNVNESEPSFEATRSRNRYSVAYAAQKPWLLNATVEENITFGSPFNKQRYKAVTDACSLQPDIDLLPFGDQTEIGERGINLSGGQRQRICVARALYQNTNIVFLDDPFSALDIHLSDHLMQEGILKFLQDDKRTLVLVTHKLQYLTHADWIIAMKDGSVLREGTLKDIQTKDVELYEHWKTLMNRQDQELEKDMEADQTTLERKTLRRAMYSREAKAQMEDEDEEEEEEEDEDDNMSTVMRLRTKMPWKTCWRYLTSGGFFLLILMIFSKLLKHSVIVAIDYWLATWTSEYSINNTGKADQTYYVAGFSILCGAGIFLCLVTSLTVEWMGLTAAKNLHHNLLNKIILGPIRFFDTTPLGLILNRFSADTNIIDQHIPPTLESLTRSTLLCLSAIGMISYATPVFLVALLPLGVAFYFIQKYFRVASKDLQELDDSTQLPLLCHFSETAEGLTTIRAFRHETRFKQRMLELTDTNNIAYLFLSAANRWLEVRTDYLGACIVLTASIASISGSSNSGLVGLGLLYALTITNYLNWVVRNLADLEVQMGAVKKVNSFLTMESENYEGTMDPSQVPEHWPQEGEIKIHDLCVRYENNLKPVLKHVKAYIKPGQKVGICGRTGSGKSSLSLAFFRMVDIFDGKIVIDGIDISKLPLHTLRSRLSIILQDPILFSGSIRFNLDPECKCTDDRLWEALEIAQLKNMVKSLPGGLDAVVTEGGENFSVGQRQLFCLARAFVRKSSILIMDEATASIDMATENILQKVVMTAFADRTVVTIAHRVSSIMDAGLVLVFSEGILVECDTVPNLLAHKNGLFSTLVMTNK
# procedureSummary: Ability to open human urinary bladder Kir6.2 channel containing SUR2B in Ltk cells by FLIPR assay
# Format: functional, cell-based

The molecule CC(C)[C@@H]1OC(O)=C2C1=NC1=C(C(=O)COC1)[C@H]2c1ccc(F)c(Br)c1 (relative stereo) showed EC50 equal to > 10 µM

The molecule CC[C@H]1OCC(O)=C2C1=NC1=C(C(=O)COC1)[C@H]2c1ccc(F)c(Cl)c1 (stereo in doubt; 72b) showed EC50 equal to > 10 µM

The molecule CC[C@@H]1OCC2=C(C1=O)[C@@H](c1ccc(F)c(Br)c1)C1=C(O)OCC1=N2 (racemic) showed EC50 equal to > 10 µM

Ref: ChEMBL document CHEMBL1137338
